Recorded measurements of DC50, one per entry
# target.system: NEK7 (Homo sapiens (Human), UniProt Q8TDX7+Q96SW2)
# Sequence (Q8TDX7 whole entry): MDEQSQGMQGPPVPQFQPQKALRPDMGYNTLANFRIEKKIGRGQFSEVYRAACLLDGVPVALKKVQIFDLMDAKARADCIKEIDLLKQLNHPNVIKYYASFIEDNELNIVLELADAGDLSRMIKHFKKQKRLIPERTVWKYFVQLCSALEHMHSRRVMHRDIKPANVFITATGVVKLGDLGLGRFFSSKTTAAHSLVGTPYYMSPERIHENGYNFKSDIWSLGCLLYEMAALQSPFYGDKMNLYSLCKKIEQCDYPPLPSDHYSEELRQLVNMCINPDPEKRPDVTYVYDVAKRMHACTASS
# Sequence (Q96SW2 whole entry): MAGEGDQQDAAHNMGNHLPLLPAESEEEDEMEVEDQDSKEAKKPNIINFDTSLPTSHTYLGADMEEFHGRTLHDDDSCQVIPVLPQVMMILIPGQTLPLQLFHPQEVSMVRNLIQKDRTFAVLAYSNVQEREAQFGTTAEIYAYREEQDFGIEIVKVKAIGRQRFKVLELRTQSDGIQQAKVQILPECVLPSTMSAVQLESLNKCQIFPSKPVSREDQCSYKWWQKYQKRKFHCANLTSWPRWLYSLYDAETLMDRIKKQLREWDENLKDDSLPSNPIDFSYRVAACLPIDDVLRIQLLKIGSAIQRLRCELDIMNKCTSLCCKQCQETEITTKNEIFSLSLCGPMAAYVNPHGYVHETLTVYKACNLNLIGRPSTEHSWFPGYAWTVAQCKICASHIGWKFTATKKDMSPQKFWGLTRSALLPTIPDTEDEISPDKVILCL
# Sequence (Q16531 2-1140 partner): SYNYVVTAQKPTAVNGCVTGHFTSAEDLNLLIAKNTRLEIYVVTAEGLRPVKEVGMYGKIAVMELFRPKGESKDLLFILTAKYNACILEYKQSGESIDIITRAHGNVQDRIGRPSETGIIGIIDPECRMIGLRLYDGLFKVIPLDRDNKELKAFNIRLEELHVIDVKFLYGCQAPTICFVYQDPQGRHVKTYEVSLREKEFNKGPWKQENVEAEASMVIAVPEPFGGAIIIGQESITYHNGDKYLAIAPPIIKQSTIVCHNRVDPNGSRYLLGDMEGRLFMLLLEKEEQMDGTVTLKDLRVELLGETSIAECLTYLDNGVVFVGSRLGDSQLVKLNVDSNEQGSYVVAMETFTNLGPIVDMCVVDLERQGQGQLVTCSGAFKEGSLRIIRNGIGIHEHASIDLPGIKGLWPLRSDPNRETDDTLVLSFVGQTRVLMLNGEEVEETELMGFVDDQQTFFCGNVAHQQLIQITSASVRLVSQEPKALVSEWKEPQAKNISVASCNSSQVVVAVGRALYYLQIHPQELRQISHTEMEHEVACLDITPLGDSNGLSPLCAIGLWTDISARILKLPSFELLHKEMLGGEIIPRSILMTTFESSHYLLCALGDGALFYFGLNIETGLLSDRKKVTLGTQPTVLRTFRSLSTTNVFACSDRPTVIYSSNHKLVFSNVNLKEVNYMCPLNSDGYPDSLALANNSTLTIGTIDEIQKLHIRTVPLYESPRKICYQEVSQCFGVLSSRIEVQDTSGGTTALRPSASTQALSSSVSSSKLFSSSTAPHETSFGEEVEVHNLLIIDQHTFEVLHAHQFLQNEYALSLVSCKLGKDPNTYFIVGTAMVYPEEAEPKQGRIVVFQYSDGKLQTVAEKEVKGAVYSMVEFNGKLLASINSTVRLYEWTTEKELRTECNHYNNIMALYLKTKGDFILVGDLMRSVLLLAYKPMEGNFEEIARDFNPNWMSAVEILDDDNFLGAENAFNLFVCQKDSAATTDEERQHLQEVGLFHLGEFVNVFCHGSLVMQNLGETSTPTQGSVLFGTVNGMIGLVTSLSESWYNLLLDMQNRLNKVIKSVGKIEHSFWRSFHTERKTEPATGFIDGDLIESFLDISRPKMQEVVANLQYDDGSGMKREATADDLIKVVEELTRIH
# assay.info: NEK7 NanoBiT degradation assay in Cal51 NEK7 NanoBiT cell line
# Type: cell-based
# measurement.setup: NEK7 degradation, Cal51 NEK7 NanoBiT cells, 24 hours; read-out: NanoBiT DC50

Sample records with DC50:
{"compound": "CC(C)(C(=O)NCc1ccc(C2CCC(=O)NC2=O)c(Cl)c1)c1ccncc1 (stereo not shown)", "target.system": "NEK7 (Homo sapiens (Human), UniProt Q8TDX7+Q96SW2)", "result.type": "DC50", "result": "100 to 1000 nM"}
{"compound": "CC(C)(C(=O)NCc1cc(Cl)c(C2CCC(=O)NC2=O)c(Cl)c1)c1ccc(C2CC2)nn1 (stereo not shown)", "target.system": "NEK7 (Homo sapiens (Human), UniProt Q8TDX7+Q96SW2)", "result.type": "DC50", "result": "≤ 100 nM"}
{"compound": "CC(C)(C(=O)NCc1ccc(C2CCC(=O)NC2=O)c(Cl)c1)c1ccccc1F (stereo not shown)", "target.system": "NEK7 (Homo sapiens (Human), UniProt Q8TDX7+Q96SW2)", "result.type": "DC50", "result": "≤ 100 nM"}

Next compound, DC50 to be filled in.
Prompt: # returns recorded DC50 (system: NEK7 (Homo sapiens (Human), UniProt Q8TDX7+Q96SW2)) for COCc1cnc(C(C)(C)C(=O)NCc2cc(Cl)c(C3CCC(=O)NC3=O)c(Cl)c2)cn1 (stereo not shown)
Completion: ≤ 100 nM
